target: Recombinant Human FAPα (Homo sapiens); construct: purchased R&D Systems 3715-SE-010; assay: Kinetic evaluation of substrates; type: biochemical; conditions: 10 nM FAPα; 37 °C, 60 min; Michaelis-Menten fit; triplicates
Sequence (Q12884 whole entry): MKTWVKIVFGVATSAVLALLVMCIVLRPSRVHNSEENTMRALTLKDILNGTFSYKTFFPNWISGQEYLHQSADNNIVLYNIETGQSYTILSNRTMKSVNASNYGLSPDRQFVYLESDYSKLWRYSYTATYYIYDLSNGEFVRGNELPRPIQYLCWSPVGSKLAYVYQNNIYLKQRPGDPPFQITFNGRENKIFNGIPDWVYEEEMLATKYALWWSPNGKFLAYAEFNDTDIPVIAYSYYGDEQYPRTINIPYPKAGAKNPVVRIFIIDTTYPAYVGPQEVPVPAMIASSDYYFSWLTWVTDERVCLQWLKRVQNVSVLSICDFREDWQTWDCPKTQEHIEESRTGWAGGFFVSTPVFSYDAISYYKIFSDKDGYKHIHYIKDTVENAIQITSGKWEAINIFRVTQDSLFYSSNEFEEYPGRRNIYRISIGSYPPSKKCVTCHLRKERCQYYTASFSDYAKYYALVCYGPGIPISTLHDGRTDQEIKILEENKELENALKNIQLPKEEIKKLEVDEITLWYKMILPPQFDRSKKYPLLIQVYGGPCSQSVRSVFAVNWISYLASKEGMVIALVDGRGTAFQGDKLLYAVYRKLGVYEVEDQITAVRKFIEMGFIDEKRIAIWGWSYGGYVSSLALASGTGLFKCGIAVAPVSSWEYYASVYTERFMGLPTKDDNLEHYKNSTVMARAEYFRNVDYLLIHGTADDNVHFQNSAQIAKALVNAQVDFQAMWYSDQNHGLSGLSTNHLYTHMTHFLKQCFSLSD
*1 amine or outer side, *2 acyl side, *3 side chain or, on linkers, in order; H or OH if unused. Where a SMILES comes first, the peptide text is derived from it. Bridges are numbered along the chain shown (N, C = ends). The star is where a group is joined. X1 = NC(=O)Cc1cc(=O)oc2cc(NC(=O)[C@@H]3CCCN3C(=O)Cn3nc(C[*:1])cc3C[*:2])ccc12; X2 = NC(=O)Cc1cc(=O)oc2cc(NC(=O)[C@@H]3CCCN3C(=O)Cn3nc(C[*:2])cc3C[*:1])ccc12; AMC = Cc1cc(=O)oc2cc(N*)ccc12; Cbz = O=C(OCc1ccccc1)*
readoutName: kcat/KM

{"columns": ["molecule", "kcat/KM"],
 "data": [
  ["Cc1cc(=O)oc2cc(NC(=O)[C@@H]3CCCN3C(=O)CNC(=O)OCc3ccccc3)ccc12 [zGP-AMC] (Cbz-Gly-Pro-{AMC})", "155793 M⁻¹ s⁻¹"],
  ["CC(C)C[C@@H]1NC(=O)[C@H](CC(N)=O)NC(=O)[C@H](CCC(N)=O)NC(=O)[C@H](Cc2ccccc2)NC(=O)[C@H](CO)NC(=O)[C@H](C(C)C)NC(=O)[C@@H](N)CSCc2cc(nn2CC(=O)N2CCC[C@H]2C(=O)Nc2ccc3c(CC(N)=O)cc(=O)oc3c2)CSC[C@@H](C(=O)NCC(N)=O)NC(=O)[C@H](CC(=O)O)NC1=O [FAP-33.2] (H-CVSFQNLDCG-NH2; linker 1-9 via X2; N-terminus assumed)", "23633 M⁻¹ s⁻¹"],
  ["CC(C)[C@@H]1NC(=O)[C@@H](N)CSCc2cc(n(CC(=O)N3CCC[C@H]3C(=O)Nc3ccc4c(CC(N)=O)cc(=O)oc4c3)n2)CSC[C@@H](C(=O)NCC(N)=O)NC(=O)[C@H](CC(=O)O)NC(=O)[C@H](C)NC(=O)[C@H](CC(N)=O)NC(=O)[C@H](CCC(N)=O)NC(=O)[C@H](Cc2ccccc2)NC(=O)[C@H](CO)NC1=O [FAP-33.2A6] (H-CVSFQNADCG-NH2; linker 1-9 via X1; N-terminus assumed)", "28312 M⁻¹ s⁻¹"]
]}

Now examine the next entry.
Exercise: Recorded kcat/KM for Cc1cc(=O)oc2cc(NC(=O)[C@@H]3CCCN3C(=O)CN)ccc12 [GP-AMC] (H-Gly-Pro-{AMC}) , please?
Solution: 637 M⁻¹ s⁻¹

Reference source: paper PMC12314892
